Can you tell me IC50 for the items I'm about to list?
biological target: HER2 INS YVMA (Homo sapiens, UniProt P04626, INS775YVMA); assay: Lance Kinase Activity Assay, Her2 Exon 20 InsYVMA; details: biochemical Lance assay
Sequence (P04626 with tags, fused parts or gaps INS775YVMA): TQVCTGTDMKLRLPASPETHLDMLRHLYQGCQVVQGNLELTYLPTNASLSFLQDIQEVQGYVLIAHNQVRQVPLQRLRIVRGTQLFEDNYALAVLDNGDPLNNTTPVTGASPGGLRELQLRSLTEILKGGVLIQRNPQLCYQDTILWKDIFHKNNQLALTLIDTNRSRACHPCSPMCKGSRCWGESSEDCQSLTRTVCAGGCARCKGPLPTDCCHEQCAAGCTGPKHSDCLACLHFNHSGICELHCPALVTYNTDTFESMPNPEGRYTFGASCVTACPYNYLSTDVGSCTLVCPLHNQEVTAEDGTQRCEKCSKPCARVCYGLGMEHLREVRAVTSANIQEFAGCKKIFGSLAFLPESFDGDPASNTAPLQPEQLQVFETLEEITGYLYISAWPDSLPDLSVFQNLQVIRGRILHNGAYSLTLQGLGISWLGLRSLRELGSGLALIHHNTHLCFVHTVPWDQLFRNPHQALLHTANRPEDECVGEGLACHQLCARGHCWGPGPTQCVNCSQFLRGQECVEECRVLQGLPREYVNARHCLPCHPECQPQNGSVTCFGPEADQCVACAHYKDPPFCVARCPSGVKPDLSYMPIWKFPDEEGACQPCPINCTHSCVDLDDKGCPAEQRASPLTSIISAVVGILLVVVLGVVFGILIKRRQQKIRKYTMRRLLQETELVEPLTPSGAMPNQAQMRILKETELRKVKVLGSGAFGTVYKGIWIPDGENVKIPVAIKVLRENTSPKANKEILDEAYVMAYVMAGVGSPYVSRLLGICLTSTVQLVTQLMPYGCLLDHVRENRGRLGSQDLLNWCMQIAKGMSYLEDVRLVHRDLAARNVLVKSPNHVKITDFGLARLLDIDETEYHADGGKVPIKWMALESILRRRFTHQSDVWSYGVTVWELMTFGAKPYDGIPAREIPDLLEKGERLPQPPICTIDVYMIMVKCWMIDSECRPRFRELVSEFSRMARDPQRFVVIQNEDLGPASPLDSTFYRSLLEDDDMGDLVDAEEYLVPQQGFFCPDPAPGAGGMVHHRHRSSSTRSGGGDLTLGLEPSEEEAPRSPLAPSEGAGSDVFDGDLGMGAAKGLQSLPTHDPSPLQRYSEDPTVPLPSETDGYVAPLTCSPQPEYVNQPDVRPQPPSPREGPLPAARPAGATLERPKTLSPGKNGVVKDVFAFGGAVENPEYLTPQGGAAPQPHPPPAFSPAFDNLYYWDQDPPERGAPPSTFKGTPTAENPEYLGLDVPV

Some entries whose results are on file:
> print(dat)
                              record.smiles  result.type  obs.value
1  C=CC(=O)Nc1cc(-c2c(-c3cnn(CCN(C)C)c3)[nH]c3ncc(C(=O)OC(C)C)c(C)c23)ccc1C         IC50    ≤ 50 nM
2  C=CC(=O)Nc1cc(-c2c(-c3cnn(CC)c3)[nH]c3ncc(C(=O)OC(C)C)cc23)ccc1C         IC50    ≤ 50 nM

Turning now to a further molecule:
Recorded result, "C=CC(=O)Nc1cc(-c2c(-c3cnn(C)c3)[nH]c3ncc(-c4cn(C)nc4C)cc23)ccc1C" , IC50: 100 to 500 nM
